Measured growth of individual entries
Test system: MDA-MB-231 breast
Test: NCI-60 one-dose screen, 48 h (100 = growth as untreated, 0 = no growth, -100 = all killed)
Conditions: 10 µM
About 83,000 compounds went through this panel and 20% of them were active in at least one assay; those are over-represented in the sample as a whole. Calls of active or inactive are those of the source. How the source made its calls: active means growth percent below 10; inactive means the rest.

These recorded examples may help you get a feel for the data.
compound	test.system	growth
O=C1Cc2ccccc2C(=O)O1	MDA-MB-231 breast	108% (inactive)
CN(C)c1ccc(C(c2ccc(O)cc2)c2ccc(N(C)C)cc2)cc1	MDA-MB-231 breast	87.3% (inactive)
O=C1c2ccccc2C(=O)N1OCc1ccccc1	MDA-MB-231 breast	104% (inactive)
CCC(C)(C)C1CCC(O)CC1 (centres undefined)	MDA-MB-231 breast	94.9% (inactive)
CCCCOC(OCCCC)c1ccccc1	MDA-MB-231 breast	112% (inactive)

Indicate the recorded growth value for this compound: CC1=C(/C=C/C(C)=C/C=C/C(C)=C/CO)C(C)(C)CCC1
102% (inactive)

Indicate the recorded growth value for this compound: C=CC(O)CCC (centres undefined)
106% (inactive)
